TARGET OR TEST SYSTEM: Replicase polyprotein 1a (Severe acute respiratory syndrome-related coronavirus, UniProt P0C6U8)

COMPOUND	VALUE COMPARATOR	IC50 [µM]
C=C(C)[C@@H]1CC[C@]2(C(=O)O)CC[C@]3(C)[C@H](CC[C@@H]4[C@@]5(C)CCC(=O)C(C)(C)[C@@H]5CC[C@]43C)[C@@H]12 [BETUNOLIC ACID]	>	100
O=C(Nc1ccc([N+](=O)[O-])cc1Cl)c1cc(Cl)ccc1O [NICLOSAMIDE]	=	40
C=C(C)[C@@H]1CC[C@]2(C(=O)O)CC[C@]3(C)[C@H](CC[C@@H]4[C@@]5(C)CC[C@H](O)C(C)(C)[C@@H]5CC[C@]43C)[C@@H]12 [BETULINIC ACID]	=	10
COc1cc(/C=C/C(=O)CC(=O)/C=C/c2ccc(O)c(OC)c2)ccc1O [CURCUMIN]	=	40
O=C1OC[C@H](Cc2ccc3c(c2)OCO3)[C@H]1Cc1ccc2c(c1)OCO2 [HINOKININ]	>	100
O=C1OC[C@H](Cc2ccc3c(c2)OCO3)/C1=C\c1ccc2c(c1)OCO2 [SAVININ]	=	25
